biological target: T1, human GPC3 on cells (human, UniProt P51654 25-554); experiment: FACS, Huh-7 cells
T1 construct: whole, on cells; over-expressed on CHOK1 cells or endogenous on HEPG2, Hep3B and Huh-7 hepatocellular carcinoma cells; the cell line is named under assay; also called GPC3-CHOK1 cells; human GPC3 over-expressed CHOK1 cells
Listed here are binders together with their documented EC50.
Write the answer as a number in mg/L, unit excluded.

binder	EC50 [mg/L]
52H5D3B8-6#-VH4+VL4 (antibody, V domains shown, humanized) VH: QVQLVQSGAEVKKPGASVKVSCKALGYTFTDYEMHWVKQAPGQGLEWIGAIHPGSGGTAYNQKFKGRATMTADKFTSTVYMELSSLRSEDTAVYYCTRYYSYAYWGQGTLVTVSS VL: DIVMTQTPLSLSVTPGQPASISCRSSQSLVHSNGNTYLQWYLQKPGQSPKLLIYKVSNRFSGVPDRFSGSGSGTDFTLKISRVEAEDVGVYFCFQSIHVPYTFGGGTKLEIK	0.0259
52H5D3B8-6#-VH4+VL2 (antibody, V domains shown, humanized) VH: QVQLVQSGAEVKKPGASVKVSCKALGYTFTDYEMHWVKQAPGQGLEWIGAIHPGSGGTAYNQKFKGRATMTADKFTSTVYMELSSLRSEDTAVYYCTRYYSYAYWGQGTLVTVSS VL: DIVMTQTPLSLSVTPGQPASISCRSSQSLVHSNGNTYLQWYLQKPGQSPQLLIYKVSNRFSGVPDRFSGSGSGTDFTLKISRVEAEDVGVYFCFQSIHVPYTFGGGTKLEIK	0.0326

Attention now shifts to the item below.
In plain terms, 52H5D3B8-6# chimeric mAb (antibody, V domains shown, CDR3 mutant of the 52H5D3B8 chimeric mAb (human IgG1); also called 52H5D3B8-6#-VH+VL) VH: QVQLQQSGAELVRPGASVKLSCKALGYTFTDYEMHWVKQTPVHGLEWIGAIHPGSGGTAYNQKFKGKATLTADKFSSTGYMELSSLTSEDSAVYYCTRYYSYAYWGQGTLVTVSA VL: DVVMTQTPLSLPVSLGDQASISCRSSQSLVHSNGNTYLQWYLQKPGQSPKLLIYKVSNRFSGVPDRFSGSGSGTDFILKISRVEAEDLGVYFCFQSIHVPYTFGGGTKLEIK has a documented EC50 of 0.0378
